# assayed.system: T1, human Insulin Receptor A (hIR-A) (human, UniProt P06213-2 28-1370)
# T1 construct: Solubilised semi-purified receptor captured on SPA beads by antibody 83-7
# T1 sequence (P06213 other isoform, or with tags, fused parts or gaps limits assumed): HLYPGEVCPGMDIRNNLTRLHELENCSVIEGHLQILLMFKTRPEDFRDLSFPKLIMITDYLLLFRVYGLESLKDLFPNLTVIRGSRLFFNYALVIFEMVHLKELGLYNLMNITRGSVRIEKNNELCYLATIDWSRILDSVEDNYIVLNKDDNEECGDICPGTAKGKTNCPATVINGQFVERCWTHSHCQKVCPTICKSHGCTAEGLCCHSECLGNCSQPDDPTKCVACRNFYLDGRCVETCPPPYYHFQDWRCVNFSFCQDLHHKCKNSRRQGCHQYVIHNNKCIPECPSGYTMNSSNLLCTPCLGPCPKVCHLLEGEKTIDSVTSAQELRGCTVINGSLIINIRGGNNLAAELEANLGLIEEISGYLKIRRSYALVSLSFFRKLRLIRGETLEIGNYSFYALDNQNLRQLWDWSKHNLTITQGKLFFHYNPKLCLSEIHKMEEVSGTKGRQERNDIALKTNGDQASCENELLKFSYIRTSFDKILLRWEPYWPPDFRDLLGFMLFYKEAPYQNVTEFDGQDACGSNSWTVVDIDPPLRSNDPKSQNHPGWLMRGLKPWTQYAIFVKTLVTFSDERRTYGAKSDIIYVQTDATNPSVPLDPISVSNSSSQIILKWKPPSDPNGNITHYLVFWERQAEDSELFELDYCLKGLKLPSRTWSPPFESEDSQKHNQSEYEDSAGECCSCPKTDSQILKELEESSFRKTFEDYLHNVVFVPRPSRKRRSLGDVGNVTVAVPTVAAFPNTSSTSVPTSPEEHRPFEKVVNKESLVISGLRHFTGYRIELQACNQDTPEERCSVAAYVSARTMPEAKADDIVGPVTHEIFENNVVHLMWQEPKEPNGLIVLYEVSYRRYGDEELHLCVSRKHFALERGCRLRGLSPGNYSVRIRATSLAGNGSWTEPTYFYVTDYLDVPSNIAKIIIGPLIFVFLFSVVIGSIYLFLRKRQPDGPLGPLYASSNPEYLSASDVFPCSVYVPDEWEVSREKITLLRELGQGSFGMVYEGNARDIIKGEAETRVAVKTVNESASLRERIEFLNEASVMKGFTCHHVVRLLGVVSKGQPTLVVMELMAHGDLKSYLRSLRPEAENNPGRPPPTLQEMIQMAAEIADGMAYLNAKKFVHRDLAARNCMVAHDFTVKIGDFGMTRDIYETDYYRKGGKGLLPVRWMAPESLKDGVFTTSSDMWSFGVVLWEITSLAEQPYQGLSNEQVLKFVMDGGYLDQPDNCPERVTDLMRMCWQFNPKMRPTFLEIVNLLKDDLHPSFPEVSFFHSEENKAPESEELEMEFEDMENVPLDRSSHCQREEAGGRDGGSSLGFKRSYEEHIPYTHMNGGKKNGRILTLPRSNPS
# assay.protocol: SPA, relative hIR-A affinity at 20 mM vs 0 mM glucose, 1.5% HSA
Catalogue of HIR glucose factor, 20 mM glucose 1.5% HSA readings, one per entry.
Dear colleague, please return just the value in fold, with no unit written.

Record excerpt, results attached:
INSERT INTO assay_data (binder, units_text, measured) VALUES
  ('Compound of Example 146 (ligand, not fully specified; diboron group from building block of example 16; sites only in drawing) chain 1: GIVEQCCTSICSLEQLENYCNK chain 2: FVNQHLCGSHLVEALYLVCGERGFHYPK', 'fold', 4.5),
  ('Compound of Example 154 (ligand, not fully specified; diboron group from building block of example 19; sites only in drawing) chain 1: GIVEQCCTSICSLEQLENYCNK chain 2: FVNQHLCGSHLVEALYLVCGERGFHYPGK', 'fold', 3.7),
  ('Compound of Example 158 (ligand, not fully specified; diboron group from building block of example 16; sites only in drawing) chain 1: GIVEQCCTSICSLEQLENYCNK chain 2: FVNQHLCGSHLVEALYLVCGERGFHYPGK', 'fold', 9.9);

// switching to the query binder
# return recorded HIR glucose factor, 20 mM glucose 1.5% HSA for entry Compound of Example 139 (ligand, diboron group from building block of example 9; sites only in drawing) chain 1: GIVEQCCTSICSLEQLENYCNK chain 2: FVNQHLCGSHLVEALYLVCGERGFHYPK
3.2

Data provenance: patent US20220184184A1
